Task for the reader: assign each of the following compounds its reported Ki.
Target: UniProt:P34998
Sequence (P34998 whole entry): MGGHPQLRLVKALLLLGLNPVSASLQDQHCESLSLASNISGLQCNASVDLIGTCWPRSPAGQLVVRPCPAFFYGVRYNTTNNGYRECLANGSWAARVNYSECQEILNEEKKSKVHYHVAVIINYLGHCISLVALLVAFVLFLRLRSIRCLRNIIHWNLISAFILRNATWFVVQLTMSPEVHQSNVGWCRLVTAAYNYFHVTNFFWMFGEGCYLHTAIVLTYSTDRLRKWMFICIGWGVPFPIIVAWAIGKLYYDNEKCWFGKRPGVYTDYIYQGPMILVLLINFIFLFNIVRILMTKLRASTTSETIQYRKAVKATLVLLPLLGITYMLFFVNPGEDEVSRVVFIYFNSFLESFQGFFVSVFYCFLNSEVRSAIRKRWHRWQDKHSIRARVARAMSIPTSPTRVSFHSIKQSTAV
Assay: Displacement of [125I]Tyr-o-CRF from CRF1 receptor in IMR32 cells

The cases that follow already have their Ki on record.
CCc1nc(NC(CC)CC)c(CC)nc1Nc1ccc(Cl)cc1Cl
> 10 µM
CCO[C@@H]1Cc2ccccc2[C@@H]1Nc1nc(CC)c(Oc2cc(C)ccn2)nc1CC
> 10 µM

## Input Field request: Ki | item: CCc1nc(NC(CC)CC)c(CC)nc1Nc1ccccn1
## Output > 10 µM
